Observed Ki, system PfMIF (Plasmodium falciparum).

>  <molecule>
COc1cc(C)cc(Oc2cc(C)nc(N3CCOCC3)c2)c1 [Compound 25f]

>  <Ki>
1000 nM

$$$$
>  <molecule>
COc1cccc(Oc2cc(C)nc(N3CCOCC3)c2)c1 [Compound 25h]

>  <Ki>
~40 nM

$$$$
>  <molecule>
COc1ccc(-c2cc(Oc3cc(C)cc(OC)c3)cc(C)n2)cc1 [Compound 26k]

>  <Ki>
~40 nM

$$$$
